- Target System: mutEGFR (D770_N771insSVD) (Homo sapiens, UniProt P00533, DUP768-770)
- Construct: GST-EGFR #3 (SVD between D770 and N771); made in house; host or cells: Sf9 insect cells (baculovirus)
- Sequence (P00533 with tags, fused parts or gaps DUP768-770): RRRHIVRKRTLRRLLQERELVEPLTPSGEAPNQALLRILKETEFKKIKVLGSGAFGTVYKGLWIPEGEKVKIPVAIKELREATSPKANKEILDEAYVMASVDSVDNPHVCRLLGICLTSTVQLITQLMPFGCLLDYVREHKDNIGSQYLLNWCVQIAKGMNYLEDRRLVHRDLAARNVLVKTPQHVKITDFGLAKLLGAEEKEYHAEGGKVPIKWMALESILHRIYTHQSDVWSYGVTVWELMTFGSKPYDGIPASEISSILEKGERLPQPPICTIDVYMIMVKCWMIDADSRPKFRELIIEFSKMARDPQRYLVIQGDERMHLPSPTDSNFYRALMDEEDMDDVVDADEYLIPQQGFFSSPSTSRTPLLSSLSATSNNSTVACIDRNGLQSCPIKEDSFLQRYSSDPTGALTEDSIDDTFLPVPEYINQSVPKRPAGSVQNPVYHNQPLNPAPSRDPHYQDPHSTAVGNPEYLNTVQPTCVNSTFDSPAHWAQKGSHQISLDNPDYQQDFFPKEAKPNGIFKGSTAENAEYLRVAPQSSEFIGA
- Assay Details: Exon20-Mutant-EGFR (D770_N771insSVD) kinase assay (TR-FRET)
- Assay type: biochemical
- Experimental Context: mutEGFR (D770_N771insSVD) kinase assay IC50, Table 2a; D770_N771insSVD; 2 mM ATP
# IC50 per entry
Note: state the figure and append the unit.

Worked set:
> print(dat)
                                   molecule                             target.system       val
1  C=CC(=O)N1Cc2c(-c3ccncc3)c(-c3ccc(F)cc3)nn2C(CO)C1 (racemic)  mutEGFR (D770_N771insSVD) (Homo sapiens, UniProt P00533, DUP768-770)  0.409 nM
2  C=CC(=O)N1CCn2nc(-c3cccc(Cl)c3F)c(-c3ccnc4[nH]cc(C)c34)c2C1  mutEGFR (D770_N771insSVD) (Homo sapiens, UniProt P00533, DUP768-770)    166 nM
3  C=CC(=O)N1CCn2nc(-c3ccccc3F)c(-c3ccncc3)c2C1  mutEGFR (D770_N771insSVD) (Homo sapiens, UniProt P00533, DUP768-770)    1.1 nM

Now turn to the next molecule.
Prompt: Request: IC50, test system mutEGFR (D770_N771insSVD) (Homo sapiens, UniProt P00533, DUP768-770), entry Cc1c[nH]c2nccc(-c3c(-c4ccc(Cl)cc4F)nn4c3CN(C(=O)/C=C/CN(C)C)CC4)c12
Completion: 165 nM

----------
- Target System: mutEGFR (D770_N771insSVD) (Homo sapiens, UniProt P00533, DUP768-770)
- Construct: GST-EGFR #3 (SVD between D770 and N771); made in house; host or cells: Sf9 insect cells (baculovirus)
- Assay Details: Exon20-Mutant-EGFR (D770_N771insSVD) kinase assay (TR-FRET)
- Assay type: biochemical
- Experimental Context: mutEGFR (D770_N771insSVD) kinase assay IC50, Table 2b (from US Priority Patent Application); mutEGFR D770_N771insSVD
Measurement Kind: log10 IC50 (log10 of the value in nM)
Each number you see is log10 of IC50, and the unit inside the log is nM.

> print(dat)
                                   molecule    val
1  C=CC(=O)N1CCn2nc(-c3ccc(Cl)cc3)c(-c3ccncc3)c2C1  -0.86
2  C/C=C/C(=O)N1CCn2nc(-c3ccc(F)cc3)c(-c3ccncc3)c2C1   2.32
3  CN(C)C/C=C/C(=O)N1CCn2nc(-c3ccc(F)cc3)c(-c3ccncc3)c2C1  -0.14
4  C=CC(=O)N1CCn2nc(-c3ccc(F)cc3)c(-c3ccncc3)c2C1  -0.21
5  CC(C)N(C)C/C=C/C(=O)N1CCn2nc(-c3ccc(F)cc3)c(-c3ccncc3)c2C1  -0.35
6  C=CC(=O)N1CCn2nc(-c3ccc(F)cc3)c(-c3ccnc(NC(=O)C4CC4)c3)c2C1  -0.68
7  C=CS(=O)(=O)N1CCn2nc(-c3ccc(F)cc3)c(-c3ccncc3)c2C1  -0.39

Now turn to the next molecule.
Prompt: I'd like to know its log10 IC50. The molecule in question is C=CC(=O)N1CCn2nc(-c3ccc(F)cc3)c(-c3ccnc4[nH]ccc34)c2C1
Completion: 0.71

----------
# IC50 per entry
- Test system: BA/F3 (insSVD) cells
- Assay Details: Ba/F3-EGFR-insSVD cell survival assay (Cell Titer-Glo)
- Type: cell-based
- Experimental Context: Mus musculus, BaF3, 48 h, Table 3a, cell survival, Cell Titer-Glo, with 10 ng/ml EGF, without IL-3
- Experimental: Cellular Data Description (WT, insSVD, insSVD T790M) 293T cells from ATCC were transfected with pBABEpuro expression constructs for WT EGFR or EGFR-insSVD, or EGFR-insSVD T790M, and pCL-Eco packaging vector using Fugene-6 transfection reagent from Promega. […] Cell viability was measured by adding 20 μL of Cell Titer-Glo Luminescent Cell Viability Reagent diluted 1:3 in PBS. […] Plates were incubated in low light conditions for 8-10 min and luminescence was measured.
Field: numeric (nM). Do not append units.

Worked set:
> print(dat)
                                   compound  readout.unit   val
1  C=CC(=O)N1CCn2nc(Nc3ccc(F)cc3)c(-c3ccncc3)c2C1 [Example 19]            nM   823
2  C=C(CN(C)C)C(=O)N1CCn2nc(-c3ccc(F)cc3)c(-c3ccncc3)c2C1 [Example 62]            nM   390
3  Cc1c[nH]c2nccc(-c3c(-c4cccc(C#N)c4)nn4c3CN(C(=O)/C=C/CN(C)C)[C@H](C)C4)c12 [Example 289]            nM   910
4  C=CC(=O)N1Cc2c(-c3ccnc4[nH]cc(C)c34)c(-c3ccc(C(F)(F)F)cc3)nn2C[C@H]1C [Example 260]            nM   101
5  C=CC(=O)N1CCn2nc(-c3ccc(C)cc3)c(-c3ccncc3)c2C1 [Example 138]            nM  23.2

Prompt: I'd like to know its IC50. The compound in question is C=CC(=O)N1CCn2nc(-c3cccc(C#N)c3)c(-c3ccncc3)c2C1 [Example 141]
Completion: 177

Prompt: I'd like to know its IC50. The compound in question is C=CC(=O)N1CCn2nc(-c3ccc(C(F)(F)F)cc3)c(-c3ccnc4[nH]c(C)c(C)c34)c2C1 [Example 56]
Completion: 124

Prompt: I'd like to know its IC50. The compound in question is CC1c2c(-c3ccnc4[nH]ccc34)c(-c3ccc(F)cc3)nn2CCN1C(=O)/C=C/CN(C)C (single isomer, unassigned; isomer 1) [Example 255]
Completion: 296

Prompt: I'd like to know its IC50. The compound in question is C=CC(=O)N1Cc2c(-c3ccncc3)c(-c3ccc4cc(Cl)sc4c3)nn2CC1C (racemic) [Example 233]
Completion: 48.7

Prompt: I'd like to know its IC50. The compound in question is Cc1c[nH]c2nccc(-c3c(-c4ccc(Cl)cc4F)nn4c3CN(C(=O)/C=C/CN(C)C)CC4)c12 [Example 57]
Completion: 85.7

Prompt: I'd like to know its IC50. The compound in question is CN(C)C/C=C/C(=O)N1CCn2nc(-c3ccc4nn[nH]c4c3)c(-c3ccncc3)c2C1 [Example 198]
Completion: 6390

Prompt: I'd like to know its IC50. The compound in question is C=CC(=O)N1CCn2nc(-c3ccc4cc[nH]c4c3F)c(-c3ccncc3)c2C1 [Example 114]
Completion: 13.7

Prompt: I'd like to know its IC50. The compound in question is C=CC(=O)N1CCn2nc(-c3cccc(C)c3)c(-c3ccncc3)c2C1 [Example 139]
Completion: 25.9

----------
- Target System: mutEGFR (D770_N771insNPG, T790) (Homo sapiens, UniProt P00533, INS770NPG/T790M)
- Construct: exact insNPG construct not described; in-house EGFR proteins were N-terminal GST fusions from baculovirus/insect cells (borders R669-A1210 given only for WT, insSVD, insASV)
- Sequence (P00533 with tags, fused parts or gaps INS770NPG/T790M limits assumed): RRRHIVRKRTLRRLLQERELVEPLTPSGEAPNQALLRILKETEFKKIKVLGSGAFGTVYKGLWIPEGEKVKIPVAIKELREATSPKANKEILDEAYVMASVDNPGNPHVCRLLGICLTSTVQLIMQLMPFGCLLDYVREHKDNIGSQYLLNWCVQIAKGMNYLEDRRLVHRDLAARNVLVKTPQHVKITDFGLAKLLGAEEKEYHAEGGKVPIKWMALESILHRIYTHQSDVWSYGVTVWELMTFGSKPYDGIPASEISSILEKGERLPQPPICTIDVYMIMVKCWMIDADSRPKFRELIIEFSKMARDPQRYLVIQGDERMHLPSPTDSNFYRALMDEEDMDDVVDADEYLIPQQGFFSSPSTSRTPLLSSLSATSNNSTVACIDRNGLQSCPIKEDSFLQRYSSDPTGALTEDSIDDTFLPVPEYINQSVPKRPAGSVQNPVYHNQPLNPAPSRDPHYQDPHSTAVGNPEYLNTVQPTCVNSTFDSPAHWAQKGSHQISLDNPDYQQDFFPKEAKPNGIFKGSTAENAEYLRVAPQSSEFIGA
- Assay Details: mutEGFR (D770_N771insNPG, T790) kinase assay
- Type: biochemical
- Experimental Context: Table 2a, D770_N771insNPG
Measurement Kind: IC50 (nM)
Field: numeric (nM). Do not append units.

Worked set:
> print(dat)
                                   compound  measurement.kind  readout.unit   val
1  CCc1cc(-c2nn3c(c2-c2ccncc2)CN(C(=O)/C=C/CN(C)C)CC3)ccc1Cl              IC50            nM  3.89
2  C=CC(=O)N1CCn2nc(-c3ccc(F)cc3)c(-c3ccnc(Nc4ccccc4)c3)c2C1              IC50            nM  9.13
3  CO[C@H]1CCN(C/C=C/C(=O)N2CCn3nc(-c4ccc(F)cc4)c(-c4ccncc4)c3C2)C1              IC50            nM  3.53
4  C=CC(=O)N1CCn2nc(-c3ccc4[nH]ccc4c3)c(-c3ccncc3)c2C1              IC50            nM  2.85

Prompt: I'd like to know its IC50. The compound in question is CC(C)(C)OC(=O)NCC#CC(=O)N1CCn2nc(-c3ccc(F)cc3)c(-c3ccncc3)c2C1
Completion: 5.34

Prompt: I'd like to know its IC50. The compound in question is CC1c2c(-c3ccncc3)c(-c3ccc(Cl)cc3F)nn2CCN1C(=O)/C=C/CN(C)C (single isomer, unassigned; isomer 1) [Example 285]
Completion: 0.644

Prompt: I'd like to know its IC50. The compound in question is C=CC(=O)N1Cc2c(-c3ccncc3)c(-c3ccc4sccc4c3)nn2C[C@@H]1C
Completion: 0.157

Prompt: I'd like to know its IC50. The compound in question is CN(C)C/C=C/C(=O)N1CCn2nc(-c3cc(Cl)ccc3F)c(-c3ccncc3)c2C1
Completion: 2.59
